# Test System: Cathepsin S (Homo sapiens)
# Sequence (P25774 whole entry): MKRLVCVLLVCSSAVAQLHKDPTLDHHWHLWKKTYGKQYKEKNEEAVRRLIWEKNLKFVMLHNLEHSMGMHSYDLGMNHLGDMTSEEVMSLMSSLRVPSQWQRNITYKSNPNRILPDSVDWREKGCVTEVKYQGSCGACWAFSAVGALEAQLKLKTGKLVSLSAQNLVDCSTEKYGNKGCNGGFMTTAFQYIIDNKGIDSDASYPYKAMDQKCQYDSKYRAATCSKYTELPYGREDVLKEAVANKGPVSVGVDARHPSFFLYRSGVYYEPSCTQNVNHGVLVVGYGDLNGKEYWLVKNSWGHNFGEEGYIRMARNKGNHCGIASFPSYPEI
# Method Summary: Inhibition of human Cathepsin S
pIC50: −log10 of the molar value.
Measure: pIC50

Compound: CC[C@@H]1C[C@]1(NC(=O)[C@@H]1C[C@@H]2CN1C(=O)[C@H](C(C)(C)C)NC(=O)OCC(C)(C)CCCCc1cccc3c1CN(C3)C(=O)O2)C(=O)NS(=O)(=O)C1CC1 [VANIPREVIR]
Inequality Symbol: <
Readout Number: 5.00
--
Compound: CCC[C@H](NC(=O)[C@@H]1[C@H]2CCC[C@H]2CN1C(=O)[C@@H](NC(=O)[C@@H](NC(=O)c1cnccn1)C1CCCCC1)C(C)(C)C)C(=O)C(=O)NC1CC1 [TELAPREVIR]
Inequality Symbol: =
Readout Number: 6.52

###

# Method Summary: Cmax in Chimpanzee at 10 mg/kg, po by LC/MS/MS analysis
# Assay type: ADME, organism-based, Pan troglodytes
# Set-up: dose 10 mg/kg, route oral
# Protocol Conditions: in vivo

Molecule: CC[C@@H]1C[C@]1(NC(=O)[C@@H]1C[C@@H]2CN1C(=O)[C@H](C(C)(C)C)NC(=O)OCC(C)(C)CCCCc1cccc3c1CN(C3)C(=O)O2)C(=O)NS(=O)(=O)C1CC1 [VANIPREVIR]
Readout Unit: nM
Cmax: 900

###

# Test System: Cathepsin K (Homo sapiens, UniProt P43235)
# Sequence (P43235 whole entry): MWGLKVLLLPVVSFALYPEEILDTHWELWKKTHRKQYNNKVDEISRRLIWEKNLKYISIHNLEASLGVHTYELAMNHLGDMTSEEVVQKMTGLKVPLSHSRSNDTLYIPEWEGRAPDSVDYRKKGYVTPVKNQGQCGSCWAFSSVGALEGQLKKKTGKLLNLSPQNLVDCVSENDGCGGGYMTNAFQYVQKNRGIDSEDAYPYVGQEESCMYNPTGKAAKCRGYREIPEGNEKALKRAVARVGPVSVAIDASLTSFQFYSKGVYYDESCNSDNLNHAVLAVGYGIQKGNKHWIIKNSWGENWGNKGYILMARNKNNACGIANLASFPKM
pIC50: −log10 of the molar value.
Items are presented alongside their recorded pIC50.

Molecule: CC[C@@H]1C[C@]1(NC(=O)[C@@H]1C[C@@H]2CN1C(=O)[C@H](C(C)(C)C)NC(=O)OCC(C)(C)CCCCc1cccc3c1CN(C3)C(=O)O2)C(=O)NS(=O)(=O)C1CC1
Inequality Symbol: <
pIC50: 5.00
//
Molecule: CC(C)(C)NC(=O)N[C@H](C(=O)N1C[C@H]2[C@@H]([C@H]1C(=O)NC(CC1CCC1)C(=O)C(N)=O)C2(C)C)C(C)(C)C (stereo partly drawn)
Inequality Symbol: =
pIC50: 7.40
//
Molecule: CCC[C@H](NC(=O)[C@@H]1[C@H]2CCC[C@H]2CN1C(=O)[C@@H](NC(=O)[C@@H](NC(=O)c1cnccn1)C1CCCCC1)C(C)(C)C)C(=O)C(=O)NC1CC1
Inequality Symbol: =
pIC50: 6.20

###

# Method Summary: Half life in dog at 2 mg/kg, iv by LC/MS/MS analysis
# Assay type: ADME, organism-based, Canis lupus familiaris
# Design: dose 2 mg/kg, route intravenous
# Protocol Conditions: in vivo
Measure: half-life (min)

Molecule: CC[C@@H]1C[C@]1(NC(=O)[C@@H]1C[C@@H]2CN1C(=O)[C@H](C(C)(C)C)NC(=O)OCC(C)(C)CCCCc1cccc3c1CN(C3)C(=O)O2)C(=O)NS(=O)(=O)C1CC1 [VANIPREVIR]
Measure: half-life
Readout Unit: min
Readout Number: 72
